target: Prothrombin (Homo sapiens); assay: Thrombin 1536 HTS Dose Response Confirmation. [Related pubchem assays: 1046 (Thrombin 1536 HTS; hits were confirmed in this assay)]; assay type: functional
Activity calls are given as the source filed them.
Provide the recorded IC50 for the entries that follow.

Look over these answered cases.
> print(dat)
                                   molecule         reportedvalue
1       COc1ccccc1NC(=O)CCS(=O)(=O)c1ccccc1  > 50 µM (not active)
2        CCC(=O)n1nc(-c2ccco2)nc1SCc1ccccc1   0.00342 µM (active)
3  CC(Sc1nnc(-c2cc3ccccc3o2)n1-c1ccccc1)C(=O)O (stereo unspecified)  > 50 µM (not active)
4  CCN(CC)S(=O)(=O)c1ccc2c(c1)c(=O)c(C(=O)NCc1ccco1)cn2C      2.14 µM (active)
5    O=C(NNC(=O)C(c1ccccc1)c1ccccc1)c1cccs1  > 50 µM (not active)

Item under review: Cc1cc(C(=O)Nc2nc(C)c(C(=O)N(C)C)s2)ccc1[N+](=O)[O-] . Reported IC50?
> 50 µM (not active)

====

Could you please report measured IC50 for the items listed next?
target: Ubiquitin-conjugating enzyme E2 N (Homo sapiens, UniProt P61088); type: functional;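 note: Dose-response confirmation in a TR-FRET assay detecting UBC13-driven polyubiquitin chain formation, inhibition measured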
Sequence (P61088 whole entry): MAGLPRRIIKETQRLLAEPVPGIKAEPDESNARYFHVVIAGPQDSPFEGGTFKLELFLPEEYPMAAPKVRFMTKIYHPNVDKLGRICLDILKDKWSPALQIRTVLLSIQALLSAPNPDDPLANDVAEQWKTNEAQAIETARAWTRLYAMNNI
Active and inactive are the calls of the source.

# example entries with known answers
> print(dat)
                                   compound  outcomemeasure       reportedvalue
1  NC(=O)NC(CC(=O)NNC(=O)c1ccccn1)c1ccccc1Cl (centres undefined)            IC50  > 20 µM (inactive)
2  CCC1(C)NC(=O)N(CC(=O)N2CCC(Cc3ccccc3)CC2)C1=O (centres undefined)            IC50  > 20 µM (inactive)
3     Oc1ccc(CN2CCN(Cc3ccccc3)CC2)c2cccnc12            IC50  > 20 µM (inactive)
4  Cc1nc2ccccc2c(=O)n1NC(=O)/C=C/c1ccc(Br)cc1            IC50  > 20 µM (inactive)
5  Cc1ccc(/N=C2\C(Cl)=C(O)OC2OC(=O)c2ccccc2C)cc1 (centres undefined)            IC50  > 20 µM (inactive)

Hi, could you look up IC50 for each item in my list?
1. COc1ccc(NC(=O)C[S+]([O-])CC(=O)Nc2cc(Cl)ccc2OC)cc1 (centres undefined)
2. CCN(CC)CCOc1ccc(/C(=C(/Cl)c2ccccc2)c2ccccc2)cc1
3. Cc1ccc(NC(=O)CN(C)C(=O)c2ccc3[nH]c4c(c3c2)CC(C)CC4)cc1 (centres undefined)
4. NC1=NC[C@H](Cc2ccc(O)cc2)N1CCc1cc(C(F)(F)F)cc(C(F)(F)F)c1

> 20 µM (inactive)
> 20 µM (inactive)
> 20 µM (inactive)
> 20 µM (inactive)

====

Molecular target: UniProt:P9WMR3
Sequence (P9WMR3 whole entry): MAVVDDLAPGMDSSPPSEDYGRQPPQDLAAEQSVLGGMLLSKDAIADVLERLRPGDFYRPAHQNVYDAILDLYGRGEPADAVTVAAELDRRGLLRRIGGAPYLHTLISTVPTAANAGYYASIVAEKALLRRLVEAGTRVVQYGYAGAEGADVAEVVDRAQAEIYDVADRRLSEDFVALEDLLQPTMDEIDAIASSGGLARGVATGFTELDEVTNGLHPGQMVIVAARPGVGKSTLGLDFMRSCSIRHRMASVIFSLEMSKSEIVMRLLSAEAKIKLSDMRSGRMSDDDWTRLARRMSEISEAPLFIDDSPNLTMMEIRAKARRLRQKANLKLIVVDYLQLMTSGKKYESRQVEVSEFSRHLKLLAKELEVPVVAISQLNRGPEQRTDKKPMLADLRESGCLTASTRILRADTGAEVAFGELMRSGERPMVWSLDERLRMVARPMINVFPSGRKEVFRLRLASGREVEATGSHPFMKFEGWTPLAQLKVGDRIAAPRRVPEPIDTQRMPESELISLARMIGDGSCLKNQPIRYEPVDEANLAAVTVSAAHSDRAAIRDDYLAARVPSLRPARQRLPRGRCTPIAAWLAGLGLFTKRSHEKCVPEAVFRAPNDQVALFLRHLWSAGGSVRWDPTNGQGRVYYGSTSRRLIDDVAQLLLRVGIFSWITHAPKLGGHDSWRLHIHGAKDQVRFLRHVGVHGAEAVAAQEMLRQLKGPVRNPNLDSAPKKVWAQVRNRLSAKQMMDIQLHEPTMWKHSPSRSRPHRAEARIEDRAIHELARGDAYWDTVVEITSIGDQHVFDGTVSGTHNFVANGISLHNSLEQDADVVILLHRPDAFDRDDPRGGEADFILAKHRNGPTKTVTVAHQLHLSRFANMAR
Assay: DnaB intein splicing inhibitors, dose response, biochemical, cell-free fluorescence (AID 449749)
Assay type: functional
Active and inactive are the calls of the source.
Please answer using one outcome listed in active, inactive

// below: answered molecules
> print(dat)
                                   molecule  classlabel
1         O=C1c2cc(F)ccc2-n2c1nc1ccccc1c2=O    inactive
2                 Cc1ccc(SCC2=NNC(=O)C2)cc1      active
3  CCCC(=O)OCCNc1cc(SCCC(=O)OC)c2nonc2c1[N+](=O)[O-]      active
4  Cc1ccc(C)c(/N=C2\C(Cl)=C(O)OC2OC(=O)c2ccco2)c1 (stereo not drawn)      active

From here, focus on the item given below.
Would you mind telling me which call this test gave CC(C)(C)Nc1nc(Cl)nc(N(C#N)CN2C(=O)c3ccccc3S2(=O)=O)n1 ?
active
